Known activity at 20 min, 10 µM of a selection of compounds
TESTED_TARGET: CYP3A4 (Homo sapiens)
Sequence (P08684 2-503): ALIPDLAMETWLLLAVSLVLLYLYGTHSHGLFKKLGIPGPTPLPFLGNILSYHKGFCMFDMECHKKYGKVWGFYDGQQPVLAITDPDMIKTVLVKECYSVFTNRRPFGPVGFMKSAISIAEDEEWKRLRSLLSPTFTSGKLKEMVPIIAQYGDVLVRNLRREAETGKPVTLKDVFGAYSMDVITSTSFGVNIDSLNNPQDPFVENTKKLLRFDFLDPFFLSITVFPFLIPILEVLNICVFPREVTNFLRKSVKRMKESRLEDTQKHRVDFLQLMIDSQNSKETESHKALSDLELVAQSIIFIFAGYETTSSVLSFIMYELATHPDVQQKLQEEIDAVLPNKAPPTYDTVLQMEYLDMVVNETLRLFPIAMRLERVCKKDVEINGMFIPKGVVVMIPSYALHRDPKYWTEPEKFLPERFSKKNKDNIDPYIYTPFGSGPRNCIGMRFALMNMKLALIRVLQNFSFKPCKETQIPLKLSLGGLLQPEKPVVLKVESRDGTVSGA
MEASUREMENT_DESCRIPTION: in vitro
STUDY_CONDITIONS: microsomes, CYP activity (% of Control) 3A4 (Testosterone)
Respond numerically; units are % and should not be typed.

Before answering, review these 2 worked examples.
CC(C)(O)c1ccccc1CC[C@@H](SCC1(CC(=O)O)CC1)c1cccc(/C=C/c2ccc3ccc(Cl)cc3n2)c1 [Montelukast]: 93.1
Cc1nc2c([nH]1)c(=O)n(C)c(=O)n2Cc1ccco1 [Furafylline]: 95.1

We now examine a further compound.
Enquiry: Fill in: activity at 20 min, 10 µM of CCc1cc(Cl)c(OC)c(N2CCN(CC(O)CCNC(=O)c3cc4ccccc4[nH]3)CC2)c1 (stereo not drawn) [R-VK4-116] is ___
Return: 93.9
